- Procedure Details: Toxicity liver stage against HepG2, at 10uM
- Assay type: cell-based
- Design: test concentration 10 uM, cell line HepG2-A16-CD81EGFP
- Experimental Parameters: human, HepG2-A16-CD81EGFP cells; read-out: INHIBITION
// reported cytotoxicity at 10 µM per item

{"Compound": "N#Cc1ccc(S(=O)(=O)NC(=O)COc2ccc3c(c2)CCC3)cc1", "cytotoxicity at 10 µM, %": -9.36}
{"Compound": "O=C(Cc1ccc(CO)cc1)N1CCN(c2ccccc2Cl)C(=O)C1", "cytotoxicity at 10 µM, %": 6.39}
{"Compound": "Cc1ccc(C)c(-n2cc(CN3CC[C@@H](O)C3)c(-c3ccccc3)n2)c1", "cytotoxicity at 10 µM, %": -6.77}
{"Compound": "Cc1nc(C2CCCN2CCS(C)(=O)=O)no1 (configuration not stated)", "cytotoxicity at 10 µM, %": -5.07}
{"Compound": "COc1ccccc1-c1noc(CCC(=O)NC(C)Cn2cccn2)n1 (configuration not stated)", "cytotoxicity at 10 µM, %": 5.67}
{"Compound": "Cc1ccc(CN(CCCn2ccnc2)Cc2[nH]cnc2C)s1", "cytotoxicity at 10 µM, %": -22.8}
{"Compound": "CN1CCOC(CNC(=O)C2(c3cccc(Cl)c3)CC2)C1 (configuration not stated)", "cytotoxicity at 10 µM, %": -3.03}
{"Compound": "CS(=O)(=O)c1ccc(NC(=O)N2C[C@H](O)[C@@H](N3CCOCC3)C2)cc1", "cytotoxicity at 10 µM, %": -46}
{"Compound": "O=C1COc2cc(C(=O)NS(=O)(=O)c3cc(Cl)ccc3Cl)ccc2N1", "cytotoxicity at 10 µM, %": -7.96}
{"Compound": "O=C(CCc1cccc(F)c1F)N1CCN(Cc2ccco2)CC1", "cytotoxicity at 10 µM, %": -11.5}
{"Compound": "O=S(=O)(Nc1cnn(C2CCOCC2)c1)c1ccc(F)c(F)c1", "cytotoxicity at 10 µM, %": 6.04}
{"Compound": "CC(C)OCCCNC(=O)NCc1cccc(-n2ccnc2)c1", "cytotoxicity at 10 µM, %": 18.5}
{"Compound": "CC1CCc2nc(O)c(C(=O)NCCCN3CCN(C)CC3)cc2C1 (configuration not stated)", "cytotoxicity at 10 µM, %": -11.6}
{"Compound": "CCCc1ccc(S(=O)(=O)NCCNC(=O)c2ccoc2)cc1", "cytotoxicity at 10 µM, %": 7.36}
{"Compound": "COCCN1CCN(CC(=O)N(C)Cc2ccc(C)o2)CC1C (configuration not stated)", "cytotoxicity at 10 µM, %": -127}
{"Compound": "COc1cccc(F)c1-c1c[nH]c(C)n1", "cytotoxicity at 10 µM, %": -0.654}
{"Compound": "CN(C)S(=O)(=O)N1CCC[C@]2(C[C@@H](Oc3ncccc3F)CO2)C1", "cytotoxicity at 10 µM, %": -82.2}
{"Compound": "CN(CC1CCOC1)S(=O)(=O)c1cccc(C(=O)N2CCCCCC2)c1 (configuration not stated)", "cytotoxicity at 10 µM, %": -0.825}
{"Compound": "O=C1CCCCN1CC(=O)N1CCCC(c2ccccc2)C1 (configuration not stated)", "cytotoxicity at 10 µM, %": -1.05}
{"Compound": "NC(=O)COCCNC(=O)Nc1sc2ccccc2c1Cl", "cytotoxicity at 10 µM, %": 8.81}
{"Compound": "O=C(c1ccco1)N1CCc2ncnc(NCc3ccccn3)c2CC1", "cytotoxicity at 10 µM, %": 5.61}
{"Compound": "CN(C(=O)CSc1ccccn1)C1CCCN(CCc2ccccc2)C1 (configuration not stated)", "cytotoxicity at 10 µM, %": -4.46}
{"Compound": "O[C@@H]1CC(CNCc2ccc(F)cc2)(COc2cccnc2)C[C@@H]1O (some centres not stated)", "cytotoxicity at 10 µM, %": -10.8}
{"Compound": "CS(=O)(=O)c1cn[nH]c1C1CCCCN1C(=O)c1ccsc1 (configuration not stated)", "cytotoxicity at 10 µM, %": -18.6}
{"Compound": "Cc1cccc(N(CCC(N)=O)C(=O)c2cnccn2)c1", "cytotoxicity at 10 µM, %": -1.74}
{"Compound": "O=c1cc(Cn2cncn2)nc2n1CCCN(Cc1ccco1)C2", "cytotoxicity at 10 µM, %": 7.61}
{"Compound": "CN(C)S(=O)(=O)c1ccc(CN2CCCC2c2cccs2)o1 (configuration not stated)", "cytotoxicity at 10 µM, %": -3.31}
{"Compound": "CN(CCc1cccs1)CCc1nccs1", "cytotoxicity at 10 µM, %": -5.81}
{"Compound": "O=C(c1ccsc1)N1C[C@@H]2OCCN(CCN3CCCC3)[C@@H]2C1", "cytotoxicity at 10 µM, %": -73.7}
{"Compound": "CN(C)C(=O)N1CCN(Cc2cnn(C)c2)CC2(CNC(=O)C2)C1 (configuration not stated)", "cytotoxicity at 10 µM, %": 1.21}
{"Compound": "Cc1cc(F)c(S(=O)(=O)NCC(C)(C)N)cc1F", "cytotoxicity at 10 µM, %": 6.65}
{"Compound": "COc1cc(C(=O)Nc2nc(C)no2)ccc1C", "cytotoxicity at 10 µM, %": -8.39}
{"Compound": "CC(C)CC(C)NC1CCN(c2cccc(-c3cscn3)c2)CC1 (configuration not stated)", "cytotoxicity at 10 µM, %": -56.8}
{"Compound": "NC(=O)NC(=O)CNC1(c2ccc(Cl)cc2)CCC1", "cytotoxicity at 10 µM, %": 9.23}
{"Compound": "CCn1c(=O)c2cc(S(N)(=O)=O)ccc2n(CC)c1=O", "cytotoxicity at 10 µM, %": -13.4}
{"Compound": "Cc1ccnn1CCNC(=O)C1CCN(S(=O)(=O)c2ccc(F)cc2)C1 (configuration not stated)", "cytotoxicity at 10 µM, %": -32}
{"Compound": "CC(C)NC(=O)[C@H]1C[C@@H]2[C@@H](C1)OCCN2Cc1ccsc1", "cytotoxicity at 10 µM, %": 9.49}
{"Compound": "Cc1cc(S(=O)(=O)NC(C)(C)CN)c(F)cc1F", "cytotoxicity at 10 µM, %": 4.87}
{"Compound": "CCc1nc(CN(C(C)=O)C2CCN(CC3CCOCC3)C2)no1 (configuration not stated)", "cytotoxicity at 10 µM, %": -3.84}
{"Compound": "Cn1c2c(c(=O)n1C)CN(C(=O)c1cccc(F)c1)CCC2", "cytotoxicity at 10 µM, %": -101}
{"Compound": "CN(C)C(=O)CO[C@@H]1CC[C@H]2[C@H]1OCCN2c1ncc(F)cn1", "cytotoxicity at 10 µM, %": 5.44}
{"Compound": "CCN1CCC(CC(=O)NCCc2nc(O)cc(O)n2)CC1", "cytotoxicity at 10 µM, %": -4.76}
{"Compound": "CCn1cc(CN2CCCN(C(=O)c3ccoc3)CC2)cn1", "cytotoxicity at 10 µM, %": -18.8}
{"Compound": "O=C(c1cccc2c1OCCO2)N1CCCCC1Cn1cccn1 (configuration not stated)", "cytotoxicity at 10 µM, %": -4.94}
{"Compound": "O=C1NC(c2cnc(C3CCC3)s2)Nc2ccccc21 (configuration not stated)", "cytotoxicity at 10 µM, %": -3.95}
{"Compound": "Cc1cccc(C2(C(=O)NCC3CCN(CC(F)(F)F)C3)CCC2)c1 (configuration not stated)", "cytotoxicity at 10 µM, %": -11.5}
{"Compound": "CCN(Cc1ccccc1O)CC1(C)Cc2c(N)nc(N)nc2O1 (configuration not stated)", "cytotoxicity at 10 µM, %": 2.15}
